Tested on: 958667-338-R-J2-PDC tumor spheroids viability;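 note: spheroids exposed to compounds for seven days before readout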
test_protocol: Anticancer human tumor 958667-338-R-J2-PDC patient-derived colon adenocarcinoma cell line growth inhibition [PI3K]
condition_details: second compound 1 µM; first compound 10 µM; stronger effect = lower value; spheroids with HUVEC and MSC
Exercise: for every item that follows, state its recorded viability, T/C.
Answers are plain numbers, in %.

Count: 2. Required value per item: viability, T/C.
1. CCCS(=O)(=O)Nc1ccc(F)c(C(=O)c2c[nH]c3ncc(-c4ccc(Cl)cc4)cc23)c1F + COc1c(OCCCN2CCOCC2)ccc2c3n(c(=NC(=O)c4cnc(N)nc4)nc12)CCN3
2. CCCS(=O)(=O)Nc1ccc(F)c(C(=O)c2c[nH]c3ncc(-c4ccc(Cl)cc4)cc23)c1F + CC(Nc1ncnc2nc[nH]c12)c1cc2cccc(Cl)c2c(=O)n1-c1ccccc1

Reply |
1: 5.1; 2: 16.6

Count: 4. Required value per item: viability, T/C.
1. CC1(C)CCC(Nc2ncc(C(F)(F)F)c(-c3c[nH]c4c(P(C)(C)=O)c(C#N)ccc34)n2)CN1 (stereo unspecified) + Cc1nc(NC(=O)N2CCCC2C(N)=O)sc1-c1ccnc(C(C)(C)C(F)(F)F)c1
2. C=CC(=O)N1CCN(c2nc(=O)n(-c3c(C)ccnc3C(C)C)c3nc(-c4c(O)cccc4F)c(F)cc23)C(C)C1 (stereo unspecified) + CC(Nc1ccc2c(c1)OCCn1cc(N3C(=O)OCC3C(F)F)nc1-2)C(N)=O
3. CC(C)NCC(C(=O)N1CCN(c2ncnc3c2C(C)CC3O)CC1)c1ccc(Cl)cc1 (stereo unspecified) + CC(Nc1ncnc2nc[nH]c12)c1cc2cccc(Cl)c2c(=O)n1-c1ccccc1
4. CC(Cn1ccc(-c2ccc(C#N)c(Cl)c2)n1)NC(=O)c1cc(C(C)O)[nH]n1 (stereo unspecified) + COc1c(OCCCN2CCOCC2)ccc2c3n(c(=NC(=O)c4cnc(N)nc4)nc12)CCN3

Reply |
[22.8, 60.4, 63.4, 14.6]

Count: 3. Required value per item: viability, T/C.
1. CCCS(=O)(=O)Nc1ccc(F)c(C(=O)c2c[nH]c3ncc(-c4ccc(Cl)cc4)cc23)c1F + Cc1nc(NC(=O)N2CCCC2C(N)=O)sc1-c1ccnc(C(C)(C)C(F)(F)F)c1
2. CNC(=O)c1ccc(N2C(=S)N(c3ccc(C#N)c(C(F)(F)F)c3)C(=O)C2(C)C)cc1F + Cc1nc(NC(=O)N2CCCC2C(N)=O)sc1-c1ccnc(C(C)(C)C(F)(F)F)c1
3. Cn1ncc(Cl)c1-c1cc(C(=O)NC(CN)Cc2cccc(F)c2)sc1Cl (stereo unspecified) + CC(Nc1ccc2c(c1)OCCn1cc(N3C(=O)OCC3C(F)F)nc1-2)C(N)=O

Reply |
32.7
82.4
20.8

Count: 2. Required value per item: viability, T/C.
1. CC1(C)CCC(Nc2ncc(C(F)(F)F)c(-c3c[nH]c4c(P(C)(C)=O)c(C#N)ccc34)n2)CN1 (stereo unspecified) + CC(Nc1ccc2c(c1)OCCn1cc(N3C(=O)OCC3C(F)F)nc1-2)C(N)=O
2. CC1(C)CCC(CN2CCN(c3ccc(C(=O)NS(=O)(=O)c4ccc(NCC5CCOCC5)c([N+](=O)[O-])c4)c(Oc4cnc5[nH]ccc5c4)c3)CC2)=C(c2ccc(Cl)cc2)C1 + Cc1nc(NC(=O)N2CCCC2C(N)=O)sc1-c1ccnc(C(C)(C)C(F)(F)F)c1

Reply |
1. 14.3
2. 32.5
